- experiment_summary: MTT cytotoxicity assay, MDA-MB-231 cells
- Assay type: cell-based, human
- recorded_conditions: % Cytotoxicity, MDA-MB-231, 50 μM Mastoparan, MTT, 24 h, mean ± SEM
experimental_endpoint: cytotoxicity (%)
Reply with just the number (in %).

Quick check: cytotoxicity of CC[C@H](C)[C@H](N)C(=O)N[C@@H](CC(N)=O)C(=O)N[C@@H](CC(C)C)C(=O)N[C@@H](CCCCN)C(=O)N[C@@H](C)C(=O)N[C@@H](CC(C)C)C(=O)N[C@@H](C)C(=O)N[C@@H](C)C(=O)N[C@@H](CC(C)C)C(=O)N[C@@H](C)C(=O)N[C@@H](CCCCN)C(=O)N[C@@H](CCCCN)C(=O)N[C@H](C(=O)N[C@@H](CC(C)C)C(N)=O)[C@@H](C)CC ?
96

###

- experiment_summary: MTT cytotoxicity assay, primary HMECs
- Format: cell-based, human
- recorded_conditions: % Cytotoxicity, 25 μM Mastoparan, 24 h, mean ± SEM
experimental_endpoint: cytotoxicity (%)
Reply with just the number (in %).

Quick check: cytotoxicity of CC[C@H](C)[C@H](N)C(=O)N[C@@H](CC(N)=O)C(=O)N[C@@H](CC(C)C)C(=O)N[C@@H](CCCCN)C(=O)N[C@@H](C)C(=O)N[C@@H](CC(C)C)C(=O)N[C@@H](C)C(=O)N[C@@H](C)C(=O)N[C@@H](CC(C)C)C(=O)N[C@@H](C)C(=O)N[C@@H](CCCCN)C(=O)N[C@@H](CCCCN)C(=O)N[C@H](C(=O)N[C@@H](CC(C)C)C(N)=O)[C@@H](C)CC [Mastoparan, INLKALAALAKKIL-NH2] ?
37

###

- experiment_summary: MTT cytotoxicity assay, normal PBMCs
- Assay type: cell-based, human
- recorded_conditions: % Cytotoxicity, PBMCs, 50 μM Mastoparan, MTT, 24 h, mean ± SEM
experimental_endpoint: cytotoxicity (%)
Reply with just the number (in %).

Quick check: cytotoxicity of CC[C@H](C)[C@H](N)C(=O)N[C@@H](CC(N)=O)C(=O)N[C@@H](CC(C)C)C(=O)N[C@@H](CCCCN)C(=O)N[C@@H](C)C(=O)N[C@@H](CC(C)C)C(=O)N[C@@H](C)C(=O)N[C@@H](C)C(=O)N[C@@H](CC(C)C)C(=O)N[C@@H](C)C(=O)N[C@@H](CCCCN)C(=O)N[C@@H](CCCCN)C(=O)N[C@H](C(=O)N[C@@H](CC(C)C)C(N)=O)[C@@H](C)CC [Mastoparan, INLKALAALAKKIL-NH2] ?
49

###

- experiment_summary: MTT cytotoxicity assay, primary HMECs
- Type: cell-based, human
- recorded_conditions: % Cytotoxicity, 50 μM Mastoparan, 24 h, mean ± SEM
experimental_endpoint: cytotoxicity (%)
Reply with just the number (in %).

Quick check: cytotoxicity of CC[C@H](C)[C@H](N)C(=O)N[C@@H](CC(N)=O)C(=O)N[C@@H](CC(C)C)C(=O)N[C@@H](CCCCN)C(=O)N[C@@H](C)C(=O)N[C@@H](CC(C)C)C(=O)N[C@@H](C)C(=O)N[C@@H](C)C(=O)N[C@@H](CC(C)C)C(=O)N[C@@H](C)C(=O)N[C@@H](CCCCN)C(=O)N[C@@H](CCCCN)C(=O)N[C@H](C(=O)N[C@@H](CC(C)C)C(N)=O)[C@@H](C)CC ?
67

###

- experiment_summary: Hemolysis assay
- Assay type: cell-based, human
- recorded_conditions: % Hemolysis, human erythrocytes, 25 μM Mastoparan, 4 h, mean ± SEM
experimental_endpoint: hemolysis (%)
Reply with just the number (in %).

Quick check: hemolysis of CC[C@H](C)[C@H](N)C(=O)N[C@@H](CC(N)=O)C(=O)N[C@@H](CC(C)C)C(=O)N[C@@H](CCCCN)C(=O)N[C@@H](C)C(=O)N[C@@H](CC(C)C)C(=O)N[C@@H](C)C(=O)N[C@@H](C)C(=O)N[C@@H](CC(C)C)C(=O)N[C@@H](C)C(=O)N[C@@H](CCCCN)C(=O)N[C@@H](CCCCN)C(=O)N[C@H](C(=O)N[C@@H](CC(C)C)C(N)=O)[C@@H](C)CC ?
2

###

- experiment_summary: MTT cytotoxicity assay, Jurkat cells
- Assay type: cell-based, human
- recorded_conditions: % Cytotoxicity, Jurkat, 25 μM Mastoparan, MTT, 24 h, mean ± SEM
experimental_endpoint: cytotoxicity (%)
Reply with just the number (in %).

Quick check: cytotoxicity of CC[C@H](C)[C@H](N)C(=O)N[C@@H](CC(N)=O)C(=O)N[C@@H](CC(C)C)C(=O)N[C@@H](CCCCN)C(=O)N[C@@H](C)C(=O)N[C@@H](CC(C)C)C(=O)N[C@@H](C)C(=O)N[C@@H](C)C(=O)N[C@@H](CC(C)C)C(=O)N[C@@H](C)C(=O)N[C@@H](CCCCN)C(=O)N[C@@H](CCCCN)C(=O)N[C@H](C(=O)N[C@@H](CC(C)C)C(N)=O)[C@@H](C)CC ?
95
